test system: Mus musculus; test: Toxicity in carrageenan-challenged AKR mouse up to 0.5 mmol/kg dosed intradermally; type: organism-based; conditions: in vivo, other
Observed property: Activity

Molecule: COc1cc(OC)c(C2=NNC(c3ccc4c(c3)c3ccccc3n4C)C2)c(OC)c1 (centres undefined)
Value observed: Non-toxic

Molecule: Cn1c2ccccc2c2cc(C3CC(c4cccs4)=NN3)ccc21 (centres undefined)
Value observed: Non-toxic

Molecule: COc1ccc(C2=NNC(c3ccc4c(c3)c3ccccc3n4C)C2)cc1 (centres undefined)
Value observed: Non-toxic

Molecule: COc1ccc(C2=NNC(c3ccc4c(c3)c3ccccc3n4C)C2)cc1OC (centres undefined)
Value observed: Non-toxic
